These compounds were tested on human serotonin transporter (Homo sapiens); pKi is the recorded read-out.
Sequence (P31645 whole entry): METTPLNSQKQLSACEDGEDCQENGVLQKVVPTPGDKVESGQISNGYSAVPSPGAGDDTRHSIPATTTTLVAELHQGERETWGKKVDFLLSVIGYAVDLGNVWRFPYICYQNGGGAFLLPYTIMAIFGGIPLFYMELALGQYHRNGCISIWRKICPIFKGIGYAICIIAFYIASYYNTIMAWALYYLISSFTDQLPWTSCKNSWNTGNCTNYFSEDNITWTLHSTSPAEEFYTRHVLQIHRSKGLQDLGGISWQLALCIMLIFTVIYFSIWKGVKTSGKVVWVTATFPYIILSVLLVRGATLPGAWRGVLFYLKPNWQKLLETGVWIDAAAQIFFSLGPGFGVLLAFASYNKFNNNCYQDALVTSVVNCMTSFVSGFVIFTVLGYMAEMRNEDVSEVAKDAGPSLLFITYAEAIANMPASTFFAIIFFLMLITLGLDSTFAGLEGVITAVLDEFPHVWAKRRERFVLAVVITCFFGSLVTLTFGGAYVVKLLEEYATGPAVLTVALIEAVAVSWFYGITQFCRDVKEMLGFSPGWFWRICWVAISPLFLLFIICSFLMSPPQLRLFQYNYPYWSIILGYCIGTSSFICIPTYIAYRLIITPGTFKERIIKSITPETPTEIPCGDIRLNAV
pKi: −log10 of the molar value. Counter-ions that a name gives are not always drawn.
RECORDED_ENDPOINT: pKi

compound="Fc1ccc(-c2ccccc2CO[C@@H]2CCNC2)cc1F [Example A-13, fumarate]" reported_measurement=7.27
compound=CC(C)OC(=O)c1ccc(-c2ccc(F)cc2CO[C@H]2CCNC2)cc1 reported_measurement=5.98
compound=Clc1ncccc1-c1ccccc1CO[C@H]1CCNC1 reported_measurement=5.45
compound=CCOc1ccc(-c2ccccc2CO[C@H]2CCNC2)cc1 reported_measurement=6.04
compound="Fc1cccc(-c2cccc(F)c2CO[C@H]2CCNC2)c1F [Example A-33, fumarate]" reported_measurement=7.00
compound=Nc1ncccc1-c1ccccc1CO[C@H]1CCNC1 reported_measurement=5.25
compound=COc1ccc(C(C)C)cc1-c1ccccc1CO[C@H]1CCNC1 reported_measurement=5.53
compound=COc1ccc(OC)c(-c2ccc(F)cc2CO[C@H]2CCNC2)c1 reported_measurement=5.91
compound=COc1cc(-c2ccc(F)cc2CO[C@H]2CCNC2)cc(OC)c1OC reported_measurement=6.24
compound=COc1ccc(F)cc1-c1ccc(F)cc1CO[C@H]1CCNC1 reported_measurement=6.18
compound=c1ccc(-c2ccc3c(c2)OCCO3)c(CO[C@H]2CCNC2)c1 reported_measurement=5.42
compound=COc1ccccc1-c1ccc(F)cc1CO[C@H]1CCNC1 reported_measurement=6.45
compound="Fc1ccc(-c2ccccc2F)c(CO[C@H]2CCNC2)c1 [Example A-9, fumarate]" reported_measurement=6.76
compound=Clc1ccc(-c2ccccc2CO[C@H]2CCNC2)cc1 reported_measurement=7.00
compound=Cc1cc(C)cc(-c2ccccc2CO[C@H]2CCNC2)c1 reported_measurement=7.04
compound=COc1ccc(-c2ccccc2CO[C@H]2CCNC2)cc1 reported_measurement=5.96
compound="Fc1ccc(-c2ccc(F)cc2CO[C@H]2CCNC2)c(F)c1.O=C(O)/C=C/C(=O)O [Example A-3, fumarate]" reported_measurement=6.87
compound=Cc1cc(C)n(-c2cccc(-c3ccc(F)cc3CO[C@H]3CCNC3)c2)n1 reported_measurement=6.97
compound="Fc1ccc(F)c(-c2cccnc2CO[C@H]2CCNC2)c1 [Example C-1, fumarate]" reported_measurement=6.97

The reported measurements were obtained from patent US20090215857A1.
